Listed next: entries and their corresponding cytotoxicity at 10 µM.
experiment.notes: Toxicity liver stage against HepG2, at 10uM
Type: cell-based
Parameters: test concentration 10 uM, cell line HepG2-A16-CD81EGFP
condition.details: human, HepG2-A16-CD81EGFP cells; read-out: INHIBITION
Please reply with the bare figure in % and do not write the unit itself.

## Input What does the data say about its cytotoxicity at 10 µM? Entry: CCN(C(=O)CCCOC)C(c1ccc(Cl)cc1)c1ccccn1 (centres undefined)
## Output -7.25

## Input Entry Cc1nccc(C(=O)N2CCCC2c2noc(C(C)C)n2)n1 (centres undefined) please
## Output -16.4

## Input Entry CC(C)c1nc(CN(C)Cc2ccc(F)cc2)cs1 please
## Output -8.81

More entries:
## Input What does the data say about its cytotoxicity at 10 µM? Entry: O=C(Cc1ccccc1)NCCNCc1cccc(O)c1
## Output -0.206

## Input Entry Cc1noc(C)c1C(=O)N(Cc1ccsc1)CC1CCCO1 (centres undefined) please
## Output 3.91

## Input Entry Cc1nn(C)c2c(N(C)Cc3ccco3)nc(C3CC3)nc12 please
## Output 1.58

## Input Entry Cc1nn(C)c(C)c1NC(=O)CNC(c1ccccc1)C1CCCC1 (centres undefined) please
## Output -0.0764

## Input Entry CCC(CC)CN1CCN(CC(=O)Nc2cccc3nsnc23)CC1 please
## Output 6.16

## Input Entry CC(C)S(=O)(=O)C(C)C(=O)NCc1ccccc1OCc1ccccc1 (centres undefined) please
## Output 18.8

## Input Entry CS(=O)(=O)NC(=O)c1nnn(-c2ccccc2)c1C1CC1 please
## Output -7.09

## Input Entry COc1cc(O)cc2c1C(=O)CC(c1ccc(O)cc1)O2 (centres undefined) please
## Output -3.07

## Input Entry O=C(C1=CCCC1)N1C[C@@H]2COC[C@]2(COc2cccnc2)C1 please
## Output -5.38

## Input Entry COCCN(Cc1cccnc1)S(=O)(=O)c1cccc(F)c1F please
## Output -1.89

## Input Entry Cc1nc(Nc2ccccn2)cc(N2CCN(S(C)(=O)=O)CC2)n1 please
## Output 3.96

## Input Entry Cc1cncc(C(=O)N(c2ccc(F)cn2)C2CCOCC2)c1 please
## Output 0.0591

## Input Entry C[C@H](NC(=O)c1cccc(CCC(C)(C)O)c1)C(N)=O please
## Output -0.511

Value source: ChEMBL document CHEMBL4513216
